- experiment_summary: Single-dose pharmacokinetics in SD rats
- Type: in vivo, SD rat
- study_conditions: male, SD, rat, plasma, sc, 10 mg/kg
Peptide text beside a SMILES is read from it.
attribute_measured: bioavailability (%)

compound="CC(C)[C@@H](NC(=O)[C@H](N)Cc1ccc(O)cc1)C(=O)N[C@H](CC(=O)O)C(=O)N[C@H](CCCCN)C(=O)N[C@H](CCCNC(=N)N)C(=O)O [FC-12738, (D-Tyr)-(D-Val)-(D-Asp)-(D-Lys)-(D-Arg)] (HELM PEPTIDE1{[dY].[dV].[dD].[dK].[dR]}$$$$V2.0)" quantitative_readout=91.9

The measurements presented in this section are drawn from paper doi:10.1101/2023.04.18.537371v1.
